# Experiment: viability loss with induced miR-34 in A549 – imaging, A549 dox-inducible miR-34, nuclei and caspase counts, primary screen (AID 1347080)
# Details: A549 miR-34 inducible, Hoechst nuclei count, 48 h; active compounds read low; cell number ratio, induced over uninduced
Result type: fold change
No unit in the answer, only the number.

Some entries whose results are on file:
Inquiry: What value of measured fold change is listed for Oc1ccc(-c2nc3cc(O)cc(Br)c3o2)cc1 ?
Reply text: 0.904

Inquiry: What value of measured fold change is listed for CCCCCCCCCCCCC(=O)N[C@H]1CCOC1=O ?
Reply text: 0.915

Inquiry: What value of measured fold change is listed for COc1cc(N2CCC(N)CC2)ccc1Nc1ncc(Cl)c(-c2c[nH]c3ccccc23)n1 ?
Reply text: 0.915

Inquiry: What value of measured fold change is listed for C#CCCC[C@@H](O)CCCCCCCCCCC(=O)O ?
Reply text: 0.902

Further cases:
Inquiry: What value of measured fold change is listed for Cn1cnc(=N)c2[nH]cnc21 ?
Reply text: 0.904

Inquiry: What value of measured fold change is listed for CCCCC[C@H](O)/C=C/[C@@H]1[C@@H](C/C=C\CCCC(=O)NCCO)[C@@H](O)C[C@@H]1O ?
Reply text: 0.916

Inquiry: What value of measured fold change is listed for c1ccc2oc(C3=NCCN3)cc2c1 ?
Reply text: 0.904

Inquiry: What value of measured fold change is listed for N[C@H](C(=O)O)c1ccc(O)c(C(=O)O)c1 ?
Reply text: 0.912

----------
# Experiment: drug combination growth inhibition, ovarian cancer – cell-based, oncology-focused library, rucaparib conditional, profiling panel (AID 1508598)
# Details: patient-derived ovarian cancer cells, CellTiter-Glo viability, 144 h; at 0.0195 µM; OCI-P5x cells; without rucaparib; active compounds read low
Active and inactive are the calls of the source.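 How the source made its calls: active means normalized viability below 100% at a tested concentration; inactive means the rest.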
Result type: viability

Some entries whose results are on file:
Inquiry: What value of measured viability is listed for CN1CCN(c2cccc(Nc3nc4c(-c5ccc(S(C)(=O)=O)cc5)cccn4n3)c2)CC1 ?
Reply text: 107% (inactive)

Inquiry: What value of measured viability is listed for Nc1ccc(C(=O)Nc2cccc(-c3nc(N4CCOCC4)c4oc5ncccc5c4n3)c2)cn1 ?
Reply text: 74.2% (active)

Further cases:
Inquiry: What value of measured viability is listed for S=C(NCc1ccc2c(c1)OCO2)N1CCN(c2ncnc3c2oc2ccccc23)CC1 ?
Reply text: 105% (inactive)

Inquiry: What value of measured viability is listed for CN(C)Cc1ccc(-c2nc3cccc4c3n2CCNC4=O)cc1 ?
Reply text: 111% (inactive)

Inquiry: What value of measured viability is listed for COc1c(C)cnc(Cn2cnc3c(Cl)nc(N)nc32)c1C ?
Reply text: 121% (inactive)

----------
# Experiment: viability loss in pontine glioma line – cell-based, SU-DIPG-XVII, MIPE5.0, CellTiter-Glo, qHTS, dose response (AID 1347060);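 as to AC50: cells exposed to compound for 48 hours before viability readout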
# Details: CellTiter-Glo ATP luminescence
Records with an inconclusive call do not appear. Calls of active or inactive are those of the source. No cut-off is given here; in the data, nearly all actives have AC50 up to about 26 µM.
Please answer using one outcome listed in active, inactive

These solved cases illustrate the format of a correct answer.
Inquiry: Would you mind telling me which call this test gave Cc1cnc(Nc2ccc(N3CCN(C)CC3)cc2)nc1Nc1cccc(S(=O)(=O)NC(C)(C)C)c1 ?
Reply text: active

Inquiry: Would you mind telling me which call this test gave O=C(NCc1ccccc1)c1csc(Nc2ccncn2)n1 ?
Reply text: active

Inquiry: Would you mind telling me which call this test gave Cn1cc(/C=C/C(=O)c2cccc(F)c2)cc1/C=C/C(=O)NO ?
Reply text: active

Inquiry: Would you mind telling me which call this test gave COc1cc2c(Oc3ccc4[nH]c(C)cc4c3F)ccnc2cc1OCC1(N)CC1 ?
Reply text: active

Inquiry: Would you mind telling me which call this test gave C=C1C(=O)O[C@@H]2[C@H]3C(C)=CC[C@@]34O[C@@]4(C)CC[C@@H]12 ?
Reply text: active

Inquiry: Would you mind telling me which call this test gave Cc1c(NC(=O)OC[C@@H]2COCCN2)cn2ncnc(Nc3ccc4c(cnn4Cc4cccc(F)c4)c3)c12 ?
Reply text: active

Further cases:
Inquiry: Would you mind telling me which call this test gave CC1=C(C(=O)Nc2cc3cn[nH]c3cc2F)C(c2ccc(C(F)(F)F)cc2)CC(=O)N1 (stereo not drawn) ?
Reply text: inactive

Inquiry: Would you mind telling me which call this test gave CC/C(=C(/c1ccc(O)cc1)c1ccc(OCCNC)cc1)c1ccccc1 ?
Reply text: active

Inquiry: Would you mind telling me which call this test gave Cc1[nH]c(/C=C2\C(=O)Nc3ccc(F)cc32)c(C)c1C(=O)NC[C@H](O)CN1CCOCC1 ?
Reply text: active

Inquiry: Would you mind telling me which call this test gave O=C(/C=C/c1ccc(CN(CCO)CCc2c[nH]c3ccccc23)cc1)NO ?
Reply text: active

Inquiry: Would you mind telling me which call this test gave CNC(=O)c1cccc(-c2ccc3c(N4CCOC[C@@H]4C)nc(N4CCOC[C@@H]4C)nc3n2)c1 ?
Reply text: active

Inquiry: Would you mind telling me which call this test gave C[C@@H]1CCN(C(=O)CC#N)C[C@@H]1N(C)c1ncnc2[nH]ccc12 ?
Reply text: inactive

Inquiry: Would you mind telling me which call this test gave CO[C@H]1/C=C/O[C@@]2(C)Oc3c(C)c(O)c4c(O)c(c5c(nc6cc(C)ccn65)c4c3C2=O)NC(=O)/C(C)=C\C=C\[C@H](C)[C@H](O)[C@@H](C)[C@@H](O)[C@@H](C)[C@H](OC(C)=O)[C@@H]1C ?
Reply text: active
